# TESTED_SYSTEM: human Y2 receptor (human) (UniProt P49146)
# Sequence (P49146 whole entry): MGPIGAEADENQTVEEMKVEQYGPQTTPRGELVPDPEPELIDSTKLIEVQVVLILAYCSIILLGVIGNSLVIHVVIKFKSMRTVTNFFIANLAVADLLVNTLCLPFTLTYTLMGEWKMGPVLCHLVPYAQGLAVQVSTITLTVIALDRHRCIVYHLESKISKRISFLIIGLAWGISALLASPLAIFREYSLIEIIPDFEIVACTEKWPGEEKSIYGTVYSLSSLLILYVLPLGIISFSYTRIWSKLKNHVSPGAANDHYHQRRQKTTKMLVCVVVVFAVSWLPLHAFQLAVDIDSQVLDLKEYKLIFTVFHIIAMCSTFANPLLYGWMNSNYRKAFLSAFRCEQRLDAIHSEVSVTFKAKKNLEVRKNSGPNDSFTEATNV
# ASSAY_SUMMARY: RBA: displacement of [125I]-PYY from hY2R/CHO membranes
Non-standard residues stand in square brackets, D forms with d. *: point of attachment. X8 = (2-Hydroxy-1-(hydroxymethyl)ethyl)carbamoyl, O=C(NC(CO)CO)*; 4Pal = N[C@@H](Cc1ccncc1)C(=O)O; Cha = N[C@@H](CC1CCCCC1)C(=O)O; Iva = CC[C@](C)(N)C(=O)O; Aib = CC(C)(N)C(=O)O
METRIC: IC50 Ratio (IC50 compound/IC50 PYY(3-36))
One number for each entry.

# input binder: X8-S[dP][Iva][4Pal][Cha][Aib]NK[Aib]TRQR[Cha]-NH2 (SMILES CC[C@](C)(NC(=O)[C@H]1CCCN1C(=O)[C@H](CO)NC(=O)NC(CO)CO)C(=O)N[C@@H](Cc1ccncc1)C(=O)N[C@@H](CC1CCCCC1)C(=O)NC(C)(C)C(=O)N[C@@H](CC(N)=O)C(=O)N[C@@H](CCCCN)C(=O)NC(C)(C)C(=O)N[C@H](C(=O)N[C@@H](CCCNC(=N)N)C(=O)N[C@@H](CCC(N)=O)C(=O)N[C@@H](CCCNC(=N)N)C(=O)N[C@@H](CC1CCCCC1)C(N)=O)[C@@H](C)O) ; wanted: its IC50 Ratio (IC50 compound/IC50 PYY(3-36))
1.76
